- TEST METHOD NOTES: Pharmacokinetics in mice IV 3 and PO 10 mg/kg; plasma, lung and liver
- PROTOCOL CONDITIONS: mouse, in vivo, 10 mg/kg
ENDPOINT LABEL: bioavailability (%)
Provide the reading as a plain figure in %.

IN: Give its bioavailability value. Item: O=C(Nc1ccc([N+](=O)[O-])cc1Cl)c1cc(Cl)ccc1OC(=O)N1CCNCC1
OUT: 83

* * *

Please go through the items and note down their IC50.
- Test system: SARS CoV-2 (USA_WA1/2020)
- TEST METHOD NOTES: Cytopathic effect (CPE) assay
- Format: cell-based
- PROTOCOL CONDITIONS: Severe acute respiratory syndrome coronavirus 2, Vero C1008; rescue IC50, SARS-CoV-2-infected Vero-E6, 72 h
Lab note: write values as number then unit, every time.

IN: # query: IC50 | item O=C(Oc1ccc(Cl)cc1C(=O)Nc1ccc([N+](=O)[O-])cc1Cl)c1ccc(C(F)(F)F)cc1 [Compound P1] | system: SARS CoV-2 (USA_WA1/2020)
OUT: 0.11 µM

IN: Please provide the recorded IC50 for O=C(Nc1ccc([N+](=O)[O-])cc1Cl)c1cc(Cl)ccc1OC1CCNCC1 , tested on SARS CoV-2 (USA_WA1/2020).
OUT: 5.1 µM

IN: For SARS CoV-2 (USA_WA1/2020), provide IC50 of CC(=O)Oc1ccc(Cl)cc1C(=O)Nc1ccc([N+](=O)[O-])cc1Cl please.
OUT: 0.25 µM

IN: Could you share what IC50 was measured for CC(C)COC(=O)Oc1ccc(Cl)cc1C(=O)Nc1ccc([N+](=O)[O-])cc1Cl , tested on SARS CoV-2 (USA_WA1/2020)?
OUT: 0.13 µM
